- System: promyelocyte leukemia cell strain HL-60
- run.description: Test for induction of cell differentiation in HL-60 cells (NBT reduction ability)
- Type: cell-based
- condition.set: compound alone, concentration -8 (1×10^−8 M); calculated from NBT reduction ability
Rule: Ratio of cells for which differentiation was induced by each compound alone (%) below 3% gives 1 (yes), anything at or above gives 0 (no).

Data request: Quick check: Ratio of cells for which differentiation was induced by each compound alone (%) of CC1(C)CCC(C)(C)c2cc(C#Cc3ccc(NN)c(=O)cc3)ccc21 under 3%?
Data returned: 0 (no)

Data request: Does the reported Ratio of cells for which differentiation was induced by each compound alone (%) of CC1(C)CCC(C)(C)c2cc(CCc3ccc(O)c(=O)cc3)ccc21 stay below 3%?
Data returned: 1 (yes)

Data request: Does this compound meet the criterion Ratio of cells for which differentiation was induced by each compound alone (%) < 3%? CC1(C)CCC(C)(C)c2cc3sc(-c4ccc(O)c(=O)cc4)cc3cc21
Data returned: 0 (no)

Data request: Field: below-cutoff. Rule: recorded Ratio of cells for which differentiation was induced by each compound alone (%) strictly less than 3%. Subject: CC1(C)CCC(C)(C)c2cc(-c3ccc(-c4ccc(O)c(=O)cc4)s3)ccc21
Data returned: 1 (yes)

Data request: Criterion: Ratio of cells for which differentiation was induced by each compound alone (%) strictly below 3%. Is it met by O=C(Nc1ccc(O)c(=O)cc1)c1cc(C(F)(F)F)cc(C(F)(F)F)c1 ?
Data returned: 1 (yes)

Data request: Is the reported Ratio of cells for which differentiation was induced by each compound alone (%) for CC(C)(C)c1cc(C(=O)Nc2ccc(O)c(=O)cc2)cc(C(C)(C)C)c1 strictly below 3%?
Data returned: 1 (yes)

Data request: Please indicate whether the reported Ratio of cells for which differentiation was induced by each compound alone (%) of CC1(C)CCC(C)(C)c2cc(Nc3ccc(O)c(=O)cc3)ccc21 is strictly below 3%.
Data returned: 0 (no)

Data request: In plain terms, does CC1(C)CCC(C)(C)c2cc(-c3ccc(O)c(=O)cc3)ccc21 come in under 3% for Ratio of cells for which differentiation was induced by each compound alone (%)?
Data returned: 1 (yes)

Data request: Quick check: Ratio of cells for which differentiation was induced by each compound alone (%) of CC1(C)CCC(C)(C)c2cc(C=CC=CC(=O)Nc3ccc(O)c(=O)cc3)ccc21 under 3%?
Data returned: 1 (yes)

Data request: I wonder whether COc1ccc(C#Cc2ccc3c(c2)C(C)(C)CCC3(C)C)ccc1=O has Ratio of cells for which differentiation was induced by each compound alone (%) below 3%. Can you tell?
Data returned: 1 (yes)

Data request: Decide: Ratio of cells for which differentiation was induced by each compound alone (%) of CN(C(=O)c1ccc2c(c1)C(C)(C)CCC2(C)C)c1ccc(O)c(=O)cc1 strictly below 3%?
Data returned: 1 (yes)

Data request: Check if Ratio of cells for which differentiation was induced by each compound alone (%) falls below 3% for CC1(C)CCC(C)(C)c2cc(N=Nc3ccc(O)c(=O)cc3)ccc21 .
Data returned: 0 (no)

Data request: Item CC1(C)CCC(C)(C)c2cc(NC(=O)Nc3ccc(O)c(=O)cc3)ccc21 : Ratio of cells for which differentiation was induced by each compound alone (%) beneath 3%, strictly?
Data returned: 1 (yes)

Data request: Bench note: check whether CC1(C)CCC(C)(C)c2cc(C#Cc3cccc(=O)cc3)ccc21 shows Ratio of cells for which differentiation was induced by each compound alone (%) below 3%
Data returned: 1 (yes)

Data request: State whether 3% exceeds Ratio of cells for which differentiation was induced by each compound alone (%) recorded for Cc1cc2c(cc1Nc1ccc(O)c(=O)cc1)C(C)(C)CCC2(C)C .
Data returned: 1 (yes)

Data request: I'd appreciate it if you could check whether Cc1cc2c(cc1N(C)c1ccc(O)c(=O)cc1)C(C)(C)CCC2(C)C has Ratio of cells for which differentiation was induced by each compound alone (%) smaller than 3%.
Data returned: 1 (yes)

Data request: Confirm or reject: Ratio of cells for which differentiation was induced by each compound alone (%) of CC1(C)CCC(C)(C)c2cc3cc(-c4ccc(O)c(=O)cc4)ccc3cc21 lies strictly below 3%
Data returned: 0 (no)

Data request: # TODO verify Ratio of cells for which differentiation was induced by each compound alone (%) < 3% strictly for this compound: CC1(C)CCC(C)(C)c2cc(-c3cccc(-c4ccc(O)c(=O)cc4)c3)ccc21
Data returned: 1 (yes)

Data request: Strictly below 3% in Ratio of cells for which differentiation was induced by each compound alone (%)? CC(C)(C)c1cc(N=Nc2ccc(O)c(=O)cc2)cc(C(C)(C)C)c1
Data returned: 1 (yes)
